These entries and their values trace back to patent US12551500B2.

Exercise: for every item that follows, state its recorded relative fluorescence intensity, times that of YK-CAP-001.
System: HEK293T cells
Test: Translation efficiency of capped luciferase mRNAs
Type: cell-based
Settings: ratio to YK-CAP-001
Hey, just the number and the unit after it is fine.

Worked examples, 3 molecules total:
COC1C(OP(=O)([O-])OC[C@H]2O[C@@H](n3cnc4c(=O)[nH]c(N)nc43)C(O)C2O)[C@@H](COP(=O)(O)OP(=O)(O)OP(=O)(O)OC[C@]23O[C@@H]([n+]4cn(C)c5c(=O)[nH]c(N)nc54)C(O[C@H]2CC(F)F)C3O)O[C@H]1n1cnc2c(N)ncnc21 (stereo partly shown) | 1.8 times
COC1C(OP(=O)([O-])OC[C@H]2O[C@@H](n3cnc4c(=O)[nH]c(N)nc43)C(O)C2O)[C@@H](COP(=O)(O)OP(=O)(O)OP(=O)(O)OC[C@]23O[C@@H]([n+]4cn(C)c5c(=O)[nH]c(N)nc54)C(O[C@H]2CC(=O)N(C)C)C3O)O[C@H]1n1cnc2c(N)ncnc21 (stereo partly shown) | 1.6 times
COC1C(OP(=O)([O-])OC[C@H]2O[C@@H](n3cnc4c(=O)[nH]c(N)nc43)C(O)C2O)[C@@H](COP(=O)(O)OP(=O)(O)OP(=O)(O)OC[C@]23O[C@@H]([n+]4cn(C)c5c(=O)[nH]c(N)nc54)C(O[C@H]2CCS(=O)(=O)N(C)C)C3O)O[C@H]1n1cnc2c(N)ncnc21 (stereo partly shown) | 1.7 times

Exam item: Output reported relative fluorescence intensity, times that of YK-CAP-001 of the molecule COC1C(OP(=O)([O-])OC[C@H]2O[C@@H](n3cnc4c(=O)[nH]c(N)nc43)C(O)C2O)[C@@H](COP(=O)(O)OP(=O)(O)OP(=O)(O)OC[C@]23O[C@@H]([n+]4cn(C)c5c(=O)[nH]c(N)nc54)C(O[C@H]2CCS(C)(=O)=O)C3O)O[C@H]1n1cnc2c(N)ncnc21 (stereo partly shown) on HEK293T cells.
Marked response: 1.6 times

---

Target: DCP2 enzyme (Schizosaccharomyces pombe)
Construct: purchased New England Biolabs
Sequence (O13828 1-243 limits assumed): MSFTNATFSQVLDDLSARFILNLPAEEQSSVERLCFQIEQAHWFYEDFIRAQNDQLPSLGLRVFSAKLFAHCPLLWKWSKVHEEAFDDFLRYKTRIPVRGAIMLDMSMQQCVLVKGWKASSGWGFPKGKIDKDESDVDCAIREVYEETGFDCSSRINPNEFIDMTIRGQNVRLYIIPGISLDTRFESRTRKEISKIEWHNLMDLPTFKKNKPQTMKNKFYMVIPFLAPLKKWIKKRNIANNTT
Sequence (Q9P805 whole entry partner): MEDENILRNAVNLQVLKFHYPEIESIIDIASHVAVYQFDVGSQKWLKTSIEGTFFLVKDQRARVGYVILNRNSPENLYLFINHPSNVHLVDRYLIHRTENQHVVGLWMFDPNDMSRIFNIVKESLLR
Sequence (Q10108 155-180 partner limits assumed): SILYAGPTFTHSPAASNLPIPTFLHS
Assay: Decapping enzyme stability test
Format: biochemical
Details: 30 pmol RNA, 50 U mRNA decapping enzyme, 37° C., 45 minutes
READOUT: Decapping rate (%) of DCP2 enzyme
Answers are plain numbers, in %.

COC1C(OP(=O)([O-])OC[C@H]2O[C@@H](n3cnc4c(=O)[nH]c(N)nc43)C(O)C2O)[C@@H](COP(=O)(O)OP(=O)(O)OP(=O)(O)OC[C@]23O[C@@H]([n+]4cn(C)c5c(=O)[nH]c(N)nc54)C(O[C@H]2CCS(=O)(=O)N(C)C)C3O)O[C@H]1n1cnc2c(N)ncnc21 (stereo partly drawn) | 11.2
COC1C(OP(=O)([O-])OC[C@H]2O[C@@H](n3cnc4c(=O)[nH]c(N)nc43)C(O)C2O)[C@@H](COP(=O)(O)OP(=O)(O)OP(=O)(O)OC[C@]23COC(C2O)[C@H]([n+]2cn(C)c4c(=O)[nH]c(N)nc42)O3)O[C@H]1n1cnc2c(N)ncnc21 (stereo partly drawn) [Compound 14, reference compound] | 28.8

Consider the additional molecule presented here.
Exam item: Output measured Decapping rate (%) of DCP2 enzyme for this item: CNc1ncnc2c1ncn2[C@@H]1O[C@H](COP(=O)(O)OP(=O)(O)OP(=O)(O)OC[C@H]2O[C@@H]([n+]3cn(C)c4c(=O)[nH]c(N)nc43)C(O)C2O)C(OP(=O)([O-])OC[C@H]2O[C@@H](n3cnc4c(=O)[nH]c(N)nc43)C(O)C2O)C1OC (stereo partly drawn) [m6A, reference compound]
Marked response: 27.5
